molecular target: T1, human G-protein-coupled receptor family C group 5 member D (GPRC5D) (human, UniProt Q9NZD1 1-345); assay: FACS, CHO-K1/human GPRC5D
T1 construct: whole, on cells; also called human GPRC5D protein
T1 sequence (Q9NZD1 whole entry): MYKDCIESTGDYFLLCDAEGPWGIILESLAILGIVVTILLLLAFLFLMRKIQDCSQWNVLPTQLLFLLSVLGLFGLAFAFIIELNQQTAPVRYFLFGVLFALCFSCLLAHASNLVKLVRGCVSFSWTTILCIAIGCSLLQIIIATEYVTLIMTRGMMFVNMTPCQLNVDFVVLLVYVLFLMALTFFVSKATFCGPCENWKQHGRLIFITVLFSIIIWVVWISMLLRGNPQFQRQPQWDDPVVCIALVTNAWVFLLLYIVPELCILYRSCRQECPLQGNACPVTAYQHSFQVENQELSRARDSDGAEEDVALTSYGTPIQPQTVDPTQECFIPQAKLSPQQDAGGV
Property: LogEC50; scope: individual binders
MEASUREMENT NAME: LogEC50

- 34-H1L1 (antibody, V domains shown, humanized 34D3H1, VH v1 x VL v1) VH: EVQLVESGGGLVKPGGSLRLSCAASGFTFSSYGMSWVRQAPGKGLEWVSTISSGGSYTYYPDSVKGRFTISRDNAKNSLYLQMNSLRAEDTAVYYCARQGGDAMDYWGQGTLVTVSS VL: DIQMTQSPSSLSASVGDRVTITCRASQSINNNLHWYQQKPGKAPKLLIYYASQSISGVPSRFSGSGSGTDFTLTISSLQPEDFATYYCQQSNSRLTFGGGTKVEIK: 0.781
- 37B9C4-XI (antibody, V domains shown, also called 37B9C4 (chimeric); 37-XI) VH: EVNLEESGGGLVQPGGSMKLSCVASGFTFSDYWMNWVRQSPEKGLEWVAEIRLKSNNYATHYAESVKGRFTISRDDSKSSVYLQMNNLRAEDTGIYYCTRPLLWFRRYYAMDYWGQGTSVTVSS VL: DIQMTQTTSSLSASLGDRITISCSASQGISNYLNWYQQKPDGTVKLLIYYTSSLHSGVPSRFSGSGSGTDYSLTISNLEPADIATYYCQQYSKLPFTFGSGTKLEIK: 0.388
- 58F9G10-XI (antibody, V domains shown, also called 58F9G10 (chimeric); 58-XI) VH: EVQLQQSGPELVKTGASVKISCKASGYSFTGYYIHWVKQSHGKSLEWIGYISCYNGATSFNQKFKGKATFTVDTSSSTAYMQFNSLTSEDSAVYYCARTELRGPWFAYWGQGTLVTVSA VL: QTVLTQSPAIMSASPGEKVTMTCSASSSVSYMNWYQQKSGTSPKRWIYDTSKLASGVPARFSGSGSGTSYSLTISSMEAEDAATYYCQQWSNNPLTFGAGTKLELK: 0.556
- 37-H1L1 (antibody, V domains shown, humanized 37B9C4, VH v1 x VL v1; also called 37B9C4 (H1L1)) VH: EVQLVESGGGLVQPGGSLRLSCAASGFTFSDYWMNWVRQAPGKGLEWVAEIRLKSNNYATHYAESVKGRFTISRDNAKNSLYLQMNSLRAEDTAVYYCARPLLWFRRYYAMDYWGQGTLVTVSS VL: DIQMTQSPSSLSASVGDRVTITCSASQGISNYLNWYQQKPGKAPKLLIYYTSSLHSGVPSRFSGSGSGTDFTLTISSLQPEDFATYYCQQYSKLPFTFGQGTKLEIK: 0.511

// provenance: patent US12281162
